- Measured on: T1, PTHR1 on CHO-K1/Ga15/PTHR1 cells (UniProt Q03431 27-593, limits assumed)
- T1 sequence (looked up): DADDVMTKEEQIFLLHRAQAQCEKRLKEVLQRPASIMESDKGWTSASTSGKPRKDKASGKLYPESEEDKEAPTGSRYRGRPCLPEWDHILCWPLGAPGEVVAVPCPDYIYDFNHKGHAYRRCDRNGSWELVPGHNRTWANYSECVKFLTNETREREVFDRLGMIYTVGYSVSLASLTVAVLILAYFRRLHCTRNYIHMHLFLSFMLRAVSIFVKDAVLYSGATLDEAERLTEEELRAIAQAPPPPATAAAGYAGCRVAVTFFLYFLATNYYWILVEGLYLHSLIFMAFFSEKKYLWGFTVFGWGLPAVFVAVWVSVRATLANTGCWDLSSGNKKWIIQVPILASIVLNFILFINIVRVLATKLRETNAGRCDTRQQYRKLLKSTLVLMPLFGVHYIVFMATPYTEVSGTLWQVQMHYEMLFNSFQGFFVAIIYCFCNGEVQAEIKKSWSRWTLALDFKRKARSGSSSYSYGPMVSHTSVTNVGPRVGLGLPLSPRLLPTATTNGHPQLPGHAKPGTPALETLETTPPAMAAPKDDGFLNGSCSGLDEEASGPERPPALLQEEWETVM
- Assay notes: cell-based or functional assay
Observable: cAMP accumulation (HTRF): Emax

Check out these entries, answers already filled in.
AVAEIQLMHQRAKWELQEIGIAITLRLLARYI [R2-43]    309%
LILVEQLMDLRAYLRAEYELREMLLRLLEEIF [R2-16]    48.7%

Input line: # return recorded cAMP accumulation (HTRF): Emax for input AVAEIQLMHQRAKWKLELELKVKLLEILKDVY [R2-25]
Output line: 96%

Input line: # return recorded cAMP accumulation (HTRF): Emax for input AVAEIQLMHQRAKWDVLIELAKLLAELLRRYH [R2-47]
Output line: 102%
